# Test system: ATP;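 note: ATP exposure 15 min at 22 °C before imaging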
# ASSAY_PROTOCOL: switch fluorescence ratio, 500 uM ATP over buffer (Cy3 cluster intensity, sum of 5 cycles each) (fold (ratio)); higher = stronger signal-on switching upon ATP binding; sequences stand for … in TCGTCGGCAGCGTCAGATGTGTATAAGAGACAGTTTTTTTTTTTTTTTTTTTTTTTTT…TC
# CONDITION_PARAMETERS: aptamer strand: ATP DNA aptamer (quencher-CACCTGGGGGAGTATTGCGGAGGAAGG + anchor), 100 nM annealed; ATP concentration: 500 uM
READOUT_NAME: switch fluorescence ratio

>  <ITEM_SEQUENCE>
TATCTATATT

>  <READOUT_NAME>
switch fluorescence ratio

>  <OBSERVED_VALUE>
1

$$$$
>  <ITEM_SEQUENCE>
GAATTAGTGT

>  <READOUT_NAME>
switch fluorescence ratio

>  <OBSERVED_VALUE>
0.984

$$$$
>  <ITEM_SEQUENCE>
AGGCCACTGA

>  <READOUT_NAME>
switch fluorescence ratio

>  <OBSERVED_VALUE>
1.03

$$$$
>  <ITEM_SEQUENCE>
ATCGGCCATG

>  <READOUT_NAME>
switch fluorescence ratio

>  <OBSERVED_VALUE>
0.988

$$$$
>  <ITEM_SEQUENCE>
TTTTTTTTAC

>  <READOUT_NAME>
switch fluorescence ratio

>  <OBSERVED_VALUE>
1.04

$$$$
>  <ITEM_SEQUENCE>
GAATCTTGGA

>  <READOUT_NAME>
switch fluorescence ratio

>  <OBSERVED_VALUE>
0.99

$$$$
>  <ITEM_SEQUENCE>
AATATTGGTA

>  <READOUT_NAME>
switch fluorescence ratio

>  <OBSERVED_VALUE>
1.01

$$$$
>  <ITEM_SEQUENCE>
CTAGTCGTAC

>  <READOUT_NAME>
switch fluorescence ratio

>  <OBSERVED_VALUE>
1.03

$$$$
>  <ITEM_SEQUENCE>
GTTTTTGAGT

>  <READOUT_NAME>
switch fluorescence ratio

>  <OBSERVED_VALUE>
1.02

$$$$
>  <ITEM_SEQUENCE>
ACATGACGGG

>  <READOUT_NAME>
switch fluorescence ratio

>  <OBSERVED_VALUE>
1.06

$$$$
